Some compounds, each annotated with its measured inhibition.
# PROTOCOL SUMMARY: NOD1 signaling inhibitors, primary screen, cell-based, luminescence, uHTS (AID 1578);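 note: HEK-293T reporter cells stimulated with the NOD1 agonist gamma-tri-DAP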
# EXPERIMENTAL CONDITIONS: NOD1-driven NF-kB luciferase reporter cells, at 4 µM, stronger effect = higher value
The whole screen tested about 290,000 compounds, of which about 3,000 (1%) were called active. This excerpt belongs to a sample that is enriched for actives.
Report as a plain number; the unit % is understood.

O=C(CN1CCCC1=O)NC1(C(F)(F)F)NC(=O)N(Cc2ccccc2)C1=O (stereo unspecified): -22.8

Entry CN1CCN(c2ccc(-c3ccnn3C(=O)Nc3cccc(C(F)(F)F)c3)cc2)CC1 : reported inhibition = ? 19.1

Which inhibition is reported for this compound? Cn1c(O)c(C=Nc2ccc(N3CCOCC3)cc2)c(=O)n(C)c1=S -14.6

Which inhibition reading was recorded for the compound CCc1c(C)nc(Nc2nc(C)c3ccc(OC)cc3n2)[nH]c1=O ? -7.1

Need inhibition, item O=C(Cc1ccc(Cl)cc1Cl)Nc1ccncc1 42.8

Dear colleague, I am looking for the recorded inhibition of the following compound: COc1ccc(CC(=O)Nc2ccccc2NC(=O)Cc2ccc(OC)cc2)cc1 -7.4

* * *

# PROTOCOL SUMMARY: NOD1 signaling inhibitors, primary screen, cell-based, luminescence, uHTS (AID 1578);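 note: HEK-293T reporter cells stimulated with the NOD1 agonist gamma-tri-DAP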
# EXPERIMENTAL CONDITIONS: NOD1-driven NF-kB luciferase reporter cells, at 4 µM
Screen size: about 290,000 compounds; about 3,000 (1%) were called active. Cut-off read from the data, not from the text of the source: active = inhibition mostly above about 36% (no sharp cut-off); inactive = mostly below about 34%. Shown is part of a subset that was picked to be rich in actives.
Bench note: report the call from YES (active), NO (inactive)

Before answering, review these 5 worked examples.
Nc1ccc(-c2ncc(-c3ccccc3)o2)cc1: YES
Cc1nn(C)c(Cl)c1NC(=O)OCc1ccccc1: NO
O=S(=O)(O)c1nc2ccccc2n1Cc1ccccc1: YES
COP(=O)(OC)C(Nc1ccc(Cl)cc1)c1ccccc1 (stereo not given): NO
O=C(CSc1nc2cccnc2n1Cc1ccccc1)NCc1ccco1: NO

I would be grateful if you could indicate the recorded call for Cc1cc(NC(=O)c2cccnc2)ccc1NC(=O)c1ccco1 . NO

Which outcome was assigned to CC(NC(=O)c1ccccc1Cl)C1CC2CCC1C2 (stereo not given) in this test? NO

* * *

# PROTOCOL SUMMARY: NOD1 signaling inhibitors, primary screen, cell-based, luminescence, uHTS (AID 1578);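 note: HEK-293T reporter cells stimulated with the NOD1 agonist gamma-tri-DAP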
# EXPERIMENTAL CONDITIONS: NOD1-driven NF-kB luciferase reporter cells, at 4 µM
Among all 290,000 compounds or so, about 3,000 (1%) were called active. No stated cut-off is given here; in the data, active means inhibition mostly above about 36% (no sharp cut-off); inactive means mostly below about 34%. The entries come from a sample that favours actives as a whole.
Answer with one of the outcomes 1 (active), -1 (inactive)

O=C(Nc1cccnc1)OC1CCCC1: -1

Outcome? COc1ccc(O)c(/C=N/NS(=O)(=O)c2ccc(C)cc2)c1 -1

Kindly provide the recorded test outcome for the following compound: COc1ccc2[nH]cc(/C=N/NS(=O)(=O)c3ccc(C)cc3)c2c1 1

Returns: the outcome recorded for Cc1ccc(S(=O)(=O)N/N=C/c2ccccc2O)cc1 in this assay. -1

Could you please tell me the result logged for CC(C)n1c(O)c(N=NC(=O)CNC(=O)c2cccnc2)c2ccccc21 in this assay? -1

Which result was noted for this compound in the test: O=C(O)CCc1ccc(-c2ccc(Br)cc2)n1Cc1ccco1 -1

What classification did C(=N\Nc1nc2ccccc2[nH]1)/c1c[nH]c2ccccc12 end up with in this test? -1

Look up the recorded call for Fc1c(F)c(F)c(N/N=C/c2c[nH]c3ccccc23)c(F)c1F in this test. 1

Given Cc1ccc(-c2nc(NCC3CCCO3)sc2C)cc1 (centres undefined) , state the outcome it received in this test. -1
